Each recorded value in this set is attributed to patent US20250026752A1.

Recorded Emax at 30 µM by entry
# target-under-test: human mAChR M4 (Homo sapiens, UniProt P08173)
# Construct: expressed in transfected cells; host or cells: CHO-K1 (ATCC), stably expressing hM4 and Gqi5
# Sequence (P08173 whole entry): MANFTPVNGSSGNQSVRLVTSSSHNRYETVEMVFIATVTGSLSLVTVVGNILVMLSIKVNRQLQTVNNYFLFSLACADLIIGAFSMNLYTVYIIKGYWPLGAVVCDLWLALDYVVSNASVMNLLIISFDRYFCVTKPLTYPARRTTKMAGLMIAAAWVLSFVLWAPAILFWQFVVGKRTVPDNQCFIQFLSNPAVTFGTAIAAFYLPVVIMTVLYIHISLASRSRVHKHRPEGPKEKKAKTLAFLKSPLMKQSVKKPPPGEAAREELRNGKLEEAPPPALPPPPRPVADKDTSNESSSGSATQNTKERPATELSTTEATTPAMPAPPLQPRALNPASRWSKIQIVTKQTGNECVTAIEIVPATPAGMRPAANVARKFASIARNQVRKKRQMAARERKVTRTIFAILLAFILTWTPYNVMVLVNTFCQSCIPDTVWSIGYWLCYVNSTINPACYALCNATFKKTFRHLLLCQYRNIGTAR
# measurement-protocol: mAChR M4 cell-based functional assay: calcium flux (Fluo-4, FDSS), positive allosteric modulator activity on the EC20 acetylcholine response, hM4-Gqi5 CHO-K1 cells
# condition-notes: CHO-K1, human M4; % ACh maximum at 30 μM
# unit: % | format: bare number

{"molecule": "Clc1nc(N2CCc3ncc(N4CCOc5ncccc54)cc3C2)c2cccnc2n1 [Compound 95]", "quantitative-result": 78}
{"molecule": "C[C@@H]1CN(c2cnc3c(c2)CN(c2ncnc4ccc(F)cc24)CC3)CCO1 [Compound 104]", "quantitative-result": 63}
{"molecule": "Fc1ccc2nc(N3CCOc4ncccc43)nc(N3CCc4ncc(C(F)(F)F)cc4C3)c2c1 [Compound 198]", "quantitative-result": 94}
{"molecule": "Fc1ccc2c(N3CCc4ncc(C(F)(F)F)cc4C3)ncnc2c1 [Compound 137]", "quantitative-result": 83}
{"molecule": "Cc1nn(C)cc1-c1cnc2c(c1)CN(c1nc(Cl)nc3ncccc13)CC2 [Compound 9]", "quantitative-result": 66}
{"molecule": "Cn1nc(C(F)(F)F)cc1-c1cnc2c(c1)CN(c1ncnc3cc(F)c(F)cc13)CC2 [Compound 271]", "quantitative-result": 80}
{"molecule": "[2H]c1nc2c(cc1N1CCOC(C)(C)C1)CN(c1ncnc3ccc(F)cc13)CC2 [Compound 228]", "quantitative-result": 97}
{"molecule": "OC1(C2CC2)CN(c2nc(N3CCc4ncc(C(F)(F)F)cc4C3)c3cc(F)ccc3n2)C1 [Compound 201]", "quantitative-result": 97}

stdin: Could you share which Emax at 30 µM value was measured for Fc1ccc2nc(C3CC3)nc(N3CCc4ncc(C(F)(F)F)cc4C3)c2c1 [Compound 178] ?
stdout: 112

stdin: Could you share which Emax at 30 µM value was measured for Cc1nc(N2CCc3ncc(N4CCCn5nccc54)cc3C2)c2cc(Cl)ccc2n1 [Compound 84] ?
stdout: 114

---

# target-under-test: human mAChR M4 (Homo sapiens)
# Construct: expressed in transfected cells; host or cells: CHO-K1 (ATCC), stably expressing hM4 and Gqi5
# measurement-protocol: mAChR M4 cell-based functional assay: calcium flux (Fluo-4, FDSS), positive allosteric modulator activity on the EC20 acetylcholine response, hM4-Gqi5 CHO-K1 cells
# condition-notes: CHO-K1, human M4; % ACh maximum at 30 μM
Emax at 30 µM strictly less than 80% = y. Otherwise n.

{"compound": "COc1ccc2nc(Cl)nc(N3CCc4ncc(C(F)(F)F)cc4C3)c2c1", "label": "y"}
{"compound": "Cc1nc(N2CCc3ncc(C(F)(F)F)cc3C2)c2cc(C#N)ccc2n1", "label": "n"}
{"compound": "Fc1ccc2ncnc(N3CCc4ncc(N5CCC(C(F)(F)F)n6nccc65)cc4C3)c2c1 (centres unmarked)", "label": "y"}

We next turn to a different compound, shown below.
stdin: Take the compound Cc1nc(N2CCc3ncc(-c4cnc(F)cc4C)cc3C2)c2cc(Cl)ccc2n1 and say whether its Emax at 30 µM is less than 80%.
stdout: y

---

# target-under-test: human mAChR M4 (Homo sapiens, UniProt P08173)
# Construct: expressed in transfected cells; host or cells: CHO-K1 (ATCC), stably expressing hM4 and Gqi5
# measurement-protocol: mAChR M4 cell-based functional assay: calcium flux (Fluo-4, FDSS), positive allosteric modulator activity on the EC20 acetylcholine response, hM4-Gqi5 CHO-K1 cells
# condition-notes: CHO-K1, human M4; % ACh maximum at 30 μM
Recorded Emax at 30 µM by entry
# unit: % | format: bare number

Here are 3 compounds together with their reported answers.
{"compound": "Cc1cn(C)nc1-c1cnc2c(c1)CN(c1nc(C(F)(F)F)nc3ccc(F)cc13)CC2", "uom": "%", "Emax at 30 µM": 69}
{"compound": "Cn1nccc1Nc1cnc2c(c1)CN(c1nc(N3CCOC(C)(C)C3)nc3ccc(F)cc13)CC2", "uom": "%", "Emax at 30 µM": 70}
{"compound": "Clc1ccc2ncnc(N3CCc4ncc(C5CC5)cc4C3)c2c1", "uom": "%", "Emax at 30 µM": 92}

stdin: Could you share which Emax at 30 µM value was measured for Cc1cc(F)c(F)cc1-c1cnc2c(c1)CN(c1ncnc3ccc(F)cc13)CC2 ?
stdout: 69

stdin: Could you share which Emax at 30 µM value was measured for Fc1cc2ncnc(N3CCc4ncc(Nc5cccnc5F)cc4C3)c2cc1F ?
stdout: 91

stdin: Could you share which Emax at 30 µM value was measured for Cc1nc(N2CCc3ncc(N4CCOC(c5ccccn5)C4)cc3C2)c2cc(F)ccc2n1 (stereo not drawn) ?
stdout: 72

stdin: Could you share which Emax at 30 µM value was measured for Cc1ccc2nc(C)nc(N3CCc4ncc(-c5cc(F)ccc5C)cc4C3)c2c1 ?
stdout: 91

stdin: Could you share which Emax at 30 µM value was measured for Fc1ccc2ncnc(N3CCc4ncc(Oc5ccccc5F)cc4C3)c2c1 ?
stdout: 69

stdin: Could you share which Emax at 30 µM value was measured for Cc1nc(N2CCc3ncc(Nc4ccnn4C)cc3C2)c2cc(F)ccc2n1 ?
stdout: 91

---

# target-under-test: human mAChR M4 (Homo sapiens, UniProt P08173)
# Construct: expressed in transfected cells; host or cells: CHO-K1 (ATCC), stably expressing hM4 and Gqi5
# measurement-protocol: mAChR M4 cell-based functional assay: calcium flux (Fluo-4, FDSS), positive allosteric modulator activity on the EC20 acetylcholine response, hM4-Gqi5 CHO-K1 cells
# condition-notes: human M4; PAM activity on EC20 acetylcholine response, calcium flux; read-out: Human M4 EC50
measured-metric: EC50

Here are 3 compounds together with their reported answers.
{"compound": "C[C@@H]1CN(c2ncnc3ccc(F)cc23)Cc2cc(N3CCOCC3)cnc21", "target-under-test": "human mAChR M4 (Homo sapiens, UniProt P08173)", "EC50": "200 nM"}
{"compound": "Cc1ccc(-c2cnc3c(c2)CN(c2nc(C(F)(F)F)nc4ccc(F)cc24)CC3)cn1", "target-under-test": "human mAChR M4 (Homo sapiens, UniProt P08173)", "EC50": "660 nM"}
{"compound": "Cc1nc(N2CCc3ncc(Nc4ccnn4C)cc3C2)c2cc(F)ccc2n1", "target-under-test": "human mAChR M4 (Homo sapiens, UniProt P08173)", "EC50": "30 nM"}

stdin: Could you share which EC50 value was measured for [2H]c1nc2c(cc1N1CCOC(C)(C)C1)CN(c1ncnc3ccc(F)cc13)CC2 ?
stdout: 40 nM

stdin: Could you share which EC50 value was measured for Fc1ccc2nc(N3CCOCC3)nc(N3CCc4ncc(C(F)(F)F)cc4C3)c2c1 ?
stdout: 260 nM

---

Recorded Emax at 30 µM by entry
# target-under-test: human mAChR M4 (Homo sapiens)
# Construct: expressed in transfected cells; host or cells: CHO-K1 (ATCC), stably expressing hM4 and Gqi5
# measurement-protocol: mAChR M4 cell-based functional assay: calcium flux (Fluo-4, FDSS), positive allosteric modulator activity on the EC20 acetylcholine response, hM4-Gqi5 CHO-K1 cells
# condition-notes: CHO-K1, human M4; % ACh maximum at 30 μM
# unit: % | format: bare number

Here are 6 compounds together with their reported answers.
{"compound": "Cn1nccc1Nc1cnc2c(c1)CN(c1ncnc3ccc(F)cc13)CC2 [Compound 75]", "target-under-test": "human mAChR M4 (Homo sapiens)", "Emax at 30 µM [%]": 100}
{"compound": "Fc1cc2ncnc(N3CCc4ncc(-c5cnn(C6CC6)c5)cc4C3)c2cc1F [Compound 54]", "target-under-test": "human mAChR M4 (Homo sapiens)", "Emax at 30 µM [%]": 85}
{"compound": "CN1CCN(c2cnc3c(c2)CN(c2ncnc4cc(F)c(F)cc24)CC3)CC12COC2 [Compound 284]", "target-under-test": "human mAChR M4 (Homo sapiens)", "Emax at 30 µM [%]": 104}
{"compound": "Cn1nccc1-c1cnc2c(c1)CN(c1ncnc3ccc(Cl)cc13)CC2 [Compound 39]", "target-under-test": "human mAChR M4 (Homo sapiens)", "Emax at 30 µM [%]": 84}
{"compound": "Cc1ccc(-c2cnc3c(c2)CN(c2nc(C(F)(F)F)nc4ccc(F)cc24)CC3)cn1 [Compound 67]", "target-under-test": "human mAChR M4 (Homo sapiens)", "Emax at 30 µM [%]": 55}
{"compound": "CN(C)c1ccc(-c2cnc3c(c2)CN(c2ncnc4ccc(Cl)cc24)CC3)cn1 [Compound 41]", "target-under-test": "human mAChR M4 (Homo sapiens)", "Emax at 30 µM [%]": 74}

stdin: Could you share which Emax at 30 µM value was measured for FC(F)(F)c1ccc2ncnc(N3CCc4ncc(N5CCOc6ncccc65)cc4C3)c2c1 [Compound 215] ?
stdout: 107

stdin: Could you share which Emax at 30 µM value was measured for Fc1ccc2ncnc(N3CCc4ncc(N5CCOC(c6cccnc6)C5)cc4C3)c2c1 (centres unmarked) [Compound 229] ?
stdout: 86

stdin: Could you share which Emax at 30 µM value was measured for Cc1nc(N2Cc3cc(C(F)(F)F)cnc3CC2C)c2cc(F)ccc2n1 (centres unmarked) [Compound 156] ?
stdout: 99

stdin: Could you share which Emax at 30 µM value was measured for Fc1ccc2nc(Cl)nc(N3CCc4ncc(N5CCCn6nccc65)cc4C3)c2c1 [Compound 87] ?
stdout: 110

stdin: Could you share which Emax at 30 µM value was measured for Fc1ccc2ncnc(N3CCc4ncc(Nc5ccncc5F)cc4C3)c2c1 [Compound 315] ?
stdout: 81

stdin: Could you share which Emax at 30 µM value was measured for CC1(C)CN(c2cnc3c(c2)CN(c2ncnc4ccc(F)cc24)CC3)CCO1 [Compound 103] ?
stdout: 63

stdin: Could you share which Emax at 30 µM value was measured for Cc1cnn(C)c1-c1cnc2c(c1)CN(c1ncnc3cc(F)c(F)cc13)CC2 [Compound 270] ?
stdout: 86

stdin: Could you share which Emax at 30 µM value was measured for Fc1ccc2nc(Cl)nc(N3CCc4ncc(Br)cc4C3)c2c1 [Compound 150] ?
stdout: 105

stdin: Could you share which Emax at 30 µM value was measured for Cc1nc(N2CCc3ncc(-c4ccccc4C)cc3C2)c2cc(Cl)ccc2n1 [Compound 302] ?
stdout: 94

stdin: Could you share which Emax at 30 µM value was measured for Cc1nn(C)cc1-c1cnc2c(c1)CN(c1ncnc3ccc(Cl)cc13)CC2 [Compound 6] ?
stdout: 88
